Exercise: for every item that follows, state its recorded pIC50.
- tgt: PRMT5/MEP50 (Homo sapiens (Human), UniProt O14744)
- Sequence (O14744 whole entry): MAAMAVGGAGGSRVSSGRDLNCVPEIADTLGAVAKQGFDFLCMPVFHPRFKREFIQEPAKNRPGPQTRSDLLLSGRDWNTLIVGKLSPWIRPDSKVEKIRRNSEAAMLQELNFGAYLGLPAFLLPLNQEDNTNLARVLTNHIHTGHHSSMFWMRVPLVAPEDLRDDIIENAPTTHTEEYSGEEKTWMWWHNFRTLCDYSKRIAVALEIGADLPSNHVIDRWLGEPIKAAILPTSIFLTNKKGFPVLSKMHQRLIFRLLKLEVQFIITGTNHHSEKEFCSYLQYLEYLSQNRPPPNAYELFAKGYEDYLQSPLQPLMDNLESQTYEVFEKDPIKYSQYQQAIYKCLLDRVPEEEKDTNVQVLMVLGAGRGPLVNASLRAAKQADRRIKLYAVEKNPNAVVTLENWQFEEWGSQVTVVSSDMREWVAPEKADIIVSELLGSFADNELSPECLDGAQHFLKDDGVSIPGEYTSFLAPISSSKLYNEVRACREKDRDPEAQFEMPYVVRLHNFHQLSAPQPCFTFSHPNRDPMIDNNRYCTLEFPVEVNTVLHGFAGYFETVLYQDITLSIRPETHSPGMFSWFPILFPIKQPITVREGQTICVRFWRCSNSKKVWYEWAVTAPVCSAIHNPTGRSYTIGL
- Sequence (Q9BQA1 whole entry partner): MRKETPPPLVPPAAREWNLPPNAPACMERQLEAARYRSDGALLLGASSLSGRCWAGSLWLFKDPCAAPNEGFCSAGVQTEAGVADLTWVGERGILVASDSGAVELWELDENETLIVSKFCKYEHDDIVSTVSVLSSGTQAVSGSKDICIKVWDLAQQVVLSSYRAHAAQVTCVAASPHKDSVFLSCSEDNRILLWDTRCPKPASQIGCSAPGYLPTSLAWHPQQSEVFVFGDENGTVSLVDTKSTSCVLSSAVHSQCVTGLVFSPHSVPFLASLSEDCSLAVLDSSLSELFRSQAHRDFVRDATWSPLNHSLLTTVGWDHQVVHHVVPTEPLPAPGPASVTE
- protocol.description: MTase-Glo methyl transferase assay (PRMT5 inhibition)
- measurement.conditions: 50 nM PRMT5/MEP50, 25 μM SAM, 5 μM Histone H4 peptide (1-21), read-out: IC50 for PRMT5 inhibiting
Numbers only, as −log10 of the molar value.

Previously resolved entries follow.
compound	tgt	pIC50
CN(C(=O)c1cc2c(cn1)nc(N)c1cncn12)C1CC(F)(F)c2cc(C(F)(F)F)ccc21 (stereo not shown) [Compound 25]	PRMT5/MEP50 (Homo sapiens (Human), UniProt O14744)	6.78
CN(C(=O)c1ccc2nc(N)c3cncn3c2c1)C1COc2nc(C(F)(F)F)ccc21 (stereo not shown) [Compound 28]	PRMT5/MEP50 (Homo sapiens (Human), UniProt O14744)	7.43
CN(C(=O)c1ccc2nc(N)c3cncn3c2c1)C1COc2cc(C(F)(F)F)ccc21 (stereo not shown) [Compound 16]	PRMT5/MEP50 (Homo sapiens (Human), UniProt O14744)	6.64
CN(C(=O)c1cc2c(cn1)nc(N)c1cncn12)C1COc2cc(C(F)(F)F)ccc21 (stereo not shown) [Compound 21]	PRMT5/MEP50 (Homo sapiens (Human), UniProt O14744)	7.60
CN(C(=O)c1cc2c(cn1)nc(N)c1cncn12)C1COc2cc(C(F)(F)F)ncc21 (stereo not shown) [Compound 33]	PRMT5/MEP50 (Homo sapiens (Human), UniProt O14744)	7.29

Please give pIC50 for each item listed below.
1. CN(C(=O)c1cc2c(cn1)nc(N)c1cncn12)C1COc2cc(C(F)(F)F)ccc21 (stereo not shown) [Compound 20]
2. CN(C(=O)c1cnc2nc(N)c3cncn3c2c1)[C@@H]1COc2cc(C(F)(F)F)ccc21 [Compound 13]

1. 6.34
2. 7.40

* * *

- tgt: hERG potassium ion channel (Homo sapiens (Human))
- Sequence (Q12809 whole entry): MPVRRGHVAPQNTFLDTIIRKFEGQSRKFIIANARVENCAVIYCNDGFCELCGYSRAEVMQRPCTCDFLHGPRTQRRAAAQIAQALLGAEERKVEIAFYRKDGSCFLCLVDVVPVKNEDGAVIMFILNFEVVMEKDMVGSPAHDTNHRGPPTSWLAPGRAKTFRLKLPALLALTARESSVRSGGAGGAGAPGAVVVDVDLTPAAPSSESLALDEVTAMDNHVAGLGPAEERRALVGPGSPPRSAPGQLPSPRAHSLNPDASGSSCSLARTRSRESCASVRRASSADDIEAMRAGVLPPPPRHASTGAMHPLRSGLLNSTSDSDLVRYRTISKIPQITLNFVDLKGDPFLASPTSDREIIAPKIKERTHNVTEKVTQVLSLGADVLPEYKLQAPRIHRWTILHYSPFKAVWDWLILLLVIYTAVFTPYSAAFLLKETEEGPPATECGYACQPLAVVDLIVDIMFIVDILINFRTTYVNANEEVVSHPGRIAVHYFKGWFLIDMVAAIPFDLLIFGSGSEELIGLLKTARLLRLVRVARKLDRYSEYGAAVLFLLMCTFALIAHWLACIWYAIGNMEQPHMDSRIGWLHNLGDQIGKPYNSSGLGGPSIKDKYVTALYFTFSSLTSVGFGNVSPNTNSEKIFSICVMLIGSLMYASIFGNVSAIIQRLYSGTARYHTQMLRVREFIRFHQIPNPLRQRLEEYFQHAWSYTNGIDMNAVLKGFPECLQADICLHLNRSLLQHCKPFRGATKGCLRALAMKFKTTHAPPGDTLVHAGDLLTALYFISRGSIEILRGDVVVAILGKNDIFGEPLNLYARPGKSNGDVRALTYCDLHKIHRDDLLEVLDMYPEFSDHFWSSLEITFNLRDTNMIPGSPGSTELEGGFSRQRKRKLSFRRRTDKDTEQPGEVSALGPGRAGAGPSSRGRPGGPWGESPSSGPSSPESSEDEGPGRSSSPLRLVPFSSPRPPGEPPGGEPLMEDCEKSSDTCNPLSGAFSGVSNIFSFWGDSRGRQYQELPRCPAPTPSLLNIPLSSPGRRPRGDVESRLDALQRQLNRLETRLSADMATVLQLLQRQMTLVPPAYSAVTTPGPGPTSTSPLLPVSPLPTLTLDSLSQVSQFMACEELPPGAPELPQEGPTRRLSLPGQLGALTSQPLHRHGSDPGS
- protocol.description: hERG potassium ion channel inhibition assay (automated patch-clamp, CHO-hERG cells)
- Format: cell-based
- measurement.conditions: Qpatch, highest test concentration 40.00 μM
Consider the following molecules; for each one, report its pIC50.
Give bare numbers, as −log10 of the molar value.

# count of solved cases: 2
molecule	pIC50
CN(C(=O)c1cc2c(cn1)nc(N)c1cncn12)C1COc2cc(C(F)(F)F)ccc21 (stereo not shown) [Compound 19]	4.87
CN(C(=O)c1cc2c(cn1)nc(N)c1cncn12)[C@@H]1CC(F)(F)c2cc(C(F)(F)F)ccc21	4.87

Would you mind listing pIC50 for each of the following molecules?
1. CN(C(=O)c1cc2c(cn1)nc(N)c1cncn12)C1COc2cc(C(F)(F)F)ccc21 (stereo not shown) [Compound 21]
2. CN(C(=O)c1ccc2nc(N)c3cncn3c2c1)C1COc2cc(C(F)(F)F)ccc21 (stereo not shown) [Compound 17]

1. 4.87
2. 4.89

* * *

- Test system: HCT116 homozygous MTAP knockout cells
- protocol.description: HCT116 cell proliferation assay (CTG), MTAP knockout cells
- Format: cell-based, human
- measurement.conditions: Homo sapiens, HCT-116, 6 days treatment, Cell Titer-Glo
I'd be grateful if you could share measured IC50 for these entries.
Answers are plain numbers, in µM.

Example entries and their recorded answers appear below.
molecule	outcome.measure	value.units	reported.measurement
CN(C(=O)c1ccc2nc(N)c3cncn3c2c1)C1COc2cc(C(F)(F)F)ccc21 (stereo not shown)	IC50	µM	0.064
[2H]C([2H])([2H])N(C(=O)c1cc2c(cn1)nc(N)c1cncn12)C1COc2cc(C(F)(F)F)cc(F)c21 (stereo not shown)	IC50	µM	0.11
C[C@H](c1ncccn1)N(Cc1ccc(C(F)(F)F)cn1)C(=O)c1ccc2nc(N)n3cncc3c2c1	IC50	µM	0.138

Please provide the recorded IC50 for [2H]C([2H])([2H])N(C(=O)c1cc2c(cn1)nc(N)c1cncn12)C1COc2cc(C(F)(F)F)c(F)cc21 (stereo not shown) , tested on HCT116 homozygous MTAP knockout cells. 0.07
